Test system: S. aureus (ATCC 29213)
Test: Zone of inhibition screen, 96 well agar array format
Format: cell-based
Design: scale not given here
Details: zone of inhibition relative to 1 mg/ml p-chlorobiphenylvancomycin
// reported zone score, S. aureus ATCC 29213 for each item listed

molecule	zone score, S. aureus ATCC 29213
COCCC(N)C(=O)NC1C(=O)NC(CC(N)=O)C(=O)NC2C(=O)NC3C(=O)NC(C(=O)NC(C(=O)O)c4cc(O)cc(O)c4-c4cc3ccc4O)C(O)c3ccc(c(Cl)c3)Oc3cc2cc(c3OC2OC(CO)C(O)C(O)C2OC2CC(C)(NCc3ccc(-c4ccc(Cl)cc4)cc3)C(O)C(C)O2)Oc2ccc(cc2Cl)C1O (centres unmarked) [Compound 322]	2
CC1OC(OC2C(Oc3c4cc5cc3Oc3ccc(cc3Cl)C(O)C3NC(=O)C(NC(=O)C5NC(=O)C(CC(N)=O)NC(=O)C(NC(=O)c5ccc(O)cc5)C(O)c5ccc(c(Cl)c5)O4)c4ccc(O)c(c4)-c4c(O)cc(O)cc4C(C(=O)O)NC3=O)OC(CO)C(O)C2O)CC(C)(NCc2ccc(-c3ccc(Cl)cc3)cc2)C1O (centres unmarked) [Compound 271]	2
